- test system: human 11β-HSD1 (Homo sapiens, UniProt P28845)
- Sequence (P28845 whole entry): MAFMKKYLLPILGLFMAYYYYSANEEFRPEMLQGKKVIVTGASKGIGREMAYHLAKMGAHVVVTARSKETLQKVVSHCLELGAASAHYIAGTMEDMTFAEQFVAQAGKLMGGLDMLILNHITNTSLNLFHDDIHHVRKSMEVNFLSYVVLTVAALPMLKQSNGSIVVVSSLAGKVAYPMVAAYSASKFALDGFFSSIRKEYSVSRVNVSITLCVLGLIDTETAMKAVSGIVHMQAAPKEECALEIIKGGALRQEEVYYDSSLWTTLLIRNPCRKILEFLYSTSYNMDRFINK
- experimental conditions: at 100 nm
reported metric: Biological Test Example 2 Average % inhibition at 100 nm (%)

>>> print(df.to_string())
                                   compound  endpoint_value
0  CC(C)(C)OC(=O)N1CCC2CN(C(=O)OC3C4CC5CC3CC(C(N)=O)(C5)C4)CC21 (single isomer, unassigned) [Example 23 Isomer 1]            35.4
1  CC(C)(C)OC(=O)NCC1CN(C(=O)OC2C3CC4CC2CC(C(N)=O)(C4)C3)C1 (single isomer, unassigned) [Example 17 Isomer 1]            22.1
2  CC(C)(C)OC(=O)N1CCC2CN(C(=O)OC3C4CC5CC3CC(C(N)=O)(C5)C4)CC21 (single isomer, unassigned) [Example 23 Isomer 2]            94.4

[A] CC(C)COC(=O)NC1CCN(C(=O)OC2C3CC4CC2CC(C(N)=O)(C4)C3)C1 (single isomer, unassigned) [Example 18 Isomer 1]
[B] CC(C)COC(=O)NC1CCN(C(=O)OC2C3CC4CC2CC(C(N)=O)(C4)C3)C1 (single isomer, unassigned) [Example 18 Isomer 2]
Prompt: Dear colleague, could you let me know whether A or B has the lower recorded Biological Test Example 2 Average % inhibition at 100 nm? Thanks. Mark your answer with the label of the selected entry.
Completion: A
(A: 22.6%, B: 95.0%)

[A] CC1(NC(=O)OC(C)(C)C)CCN(C(=O)OC2C3CC4CC2CC(C(N)=O)(C4)C3)C1 (single isomer, unassigned) [Example 22 Isomer 2.2]
[B] CC(C)(C)OC(=O)NC1(Cc2ccccc2)CCN(C(=O)OC2C3CC4CC2CC(C(N)=O)(C4)C3)C1 (single isomer, unassigned) [Example 29 Isomer 1]
[C] N#Cc1ccc(N[C@@H]2CCN(C(=O)OC3C4CC5CC3CC(C(=O)NC3CC3)(C5)C4)C2)nc1 (single isomer, unassigned) [Example 118 Isomer 2]
Prompt: Which order do these items take when sorted by rising Biological Test Example 2 Average % inhibition at 100 nm? List them. List the labels according to the requested ordering.
Completion: C, B, A
